Data provenance: ChEMBL document CHEMBL1759982

- systemName: Bcr/Abl fusion protein (Homo sapiens, UniProt P00519)
- Sequence (P00519 whole entry, the tested form may be a part): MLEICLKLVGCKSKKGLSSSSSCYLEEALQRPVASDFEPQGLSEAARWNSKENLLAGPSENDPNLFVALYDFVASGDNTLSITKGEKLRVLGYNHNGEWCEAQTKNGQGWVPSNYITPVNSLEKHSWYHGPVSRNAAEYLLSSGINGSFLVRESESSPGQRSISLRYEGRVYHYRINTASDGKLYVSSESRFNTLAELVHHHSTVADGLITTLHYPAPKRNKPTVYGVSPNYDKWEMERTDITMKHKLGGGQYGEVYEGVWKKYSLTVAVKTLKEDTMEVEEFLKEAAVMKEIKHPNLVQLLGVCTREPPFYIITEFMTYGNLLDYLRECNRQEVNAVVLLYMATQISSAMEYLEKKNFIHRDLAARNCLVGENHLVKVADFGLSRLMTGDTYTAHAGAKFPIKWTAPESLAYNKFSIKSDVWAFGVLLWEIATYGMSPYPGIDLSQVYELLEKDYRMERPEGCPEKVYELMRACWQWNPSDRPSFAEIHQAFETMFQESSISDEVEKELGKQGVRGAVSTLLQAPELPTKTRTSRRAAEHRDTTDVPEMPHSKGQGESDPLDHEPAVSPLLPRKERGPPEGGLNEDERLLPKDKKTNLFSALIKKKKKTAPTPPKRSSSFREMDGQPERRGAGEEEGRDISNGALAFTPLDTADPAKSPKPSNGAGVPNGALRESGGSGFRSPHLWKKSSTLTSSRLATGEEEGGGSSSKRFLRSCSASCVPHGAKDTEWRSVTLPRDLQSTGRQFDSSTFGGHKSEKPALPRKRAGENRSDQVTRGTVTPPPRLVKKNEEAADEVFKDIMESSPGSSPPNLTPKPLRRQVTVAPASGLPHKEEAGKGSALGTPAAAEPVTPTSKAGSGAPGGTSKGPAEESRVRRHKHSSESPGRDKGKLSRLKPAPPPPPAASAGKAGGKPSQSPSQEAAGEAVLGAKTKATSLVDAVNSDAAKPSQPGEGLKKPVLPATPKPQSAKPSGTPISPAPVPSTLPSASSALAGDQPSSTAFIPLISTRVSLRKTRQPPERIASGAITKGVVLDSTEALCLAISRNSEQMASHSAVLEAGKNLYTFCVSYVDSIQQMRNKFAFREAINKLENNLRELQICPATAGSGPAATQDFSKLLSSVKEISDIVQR
- Sequence (P11274 whole entry, further chain, the tested form may be a part): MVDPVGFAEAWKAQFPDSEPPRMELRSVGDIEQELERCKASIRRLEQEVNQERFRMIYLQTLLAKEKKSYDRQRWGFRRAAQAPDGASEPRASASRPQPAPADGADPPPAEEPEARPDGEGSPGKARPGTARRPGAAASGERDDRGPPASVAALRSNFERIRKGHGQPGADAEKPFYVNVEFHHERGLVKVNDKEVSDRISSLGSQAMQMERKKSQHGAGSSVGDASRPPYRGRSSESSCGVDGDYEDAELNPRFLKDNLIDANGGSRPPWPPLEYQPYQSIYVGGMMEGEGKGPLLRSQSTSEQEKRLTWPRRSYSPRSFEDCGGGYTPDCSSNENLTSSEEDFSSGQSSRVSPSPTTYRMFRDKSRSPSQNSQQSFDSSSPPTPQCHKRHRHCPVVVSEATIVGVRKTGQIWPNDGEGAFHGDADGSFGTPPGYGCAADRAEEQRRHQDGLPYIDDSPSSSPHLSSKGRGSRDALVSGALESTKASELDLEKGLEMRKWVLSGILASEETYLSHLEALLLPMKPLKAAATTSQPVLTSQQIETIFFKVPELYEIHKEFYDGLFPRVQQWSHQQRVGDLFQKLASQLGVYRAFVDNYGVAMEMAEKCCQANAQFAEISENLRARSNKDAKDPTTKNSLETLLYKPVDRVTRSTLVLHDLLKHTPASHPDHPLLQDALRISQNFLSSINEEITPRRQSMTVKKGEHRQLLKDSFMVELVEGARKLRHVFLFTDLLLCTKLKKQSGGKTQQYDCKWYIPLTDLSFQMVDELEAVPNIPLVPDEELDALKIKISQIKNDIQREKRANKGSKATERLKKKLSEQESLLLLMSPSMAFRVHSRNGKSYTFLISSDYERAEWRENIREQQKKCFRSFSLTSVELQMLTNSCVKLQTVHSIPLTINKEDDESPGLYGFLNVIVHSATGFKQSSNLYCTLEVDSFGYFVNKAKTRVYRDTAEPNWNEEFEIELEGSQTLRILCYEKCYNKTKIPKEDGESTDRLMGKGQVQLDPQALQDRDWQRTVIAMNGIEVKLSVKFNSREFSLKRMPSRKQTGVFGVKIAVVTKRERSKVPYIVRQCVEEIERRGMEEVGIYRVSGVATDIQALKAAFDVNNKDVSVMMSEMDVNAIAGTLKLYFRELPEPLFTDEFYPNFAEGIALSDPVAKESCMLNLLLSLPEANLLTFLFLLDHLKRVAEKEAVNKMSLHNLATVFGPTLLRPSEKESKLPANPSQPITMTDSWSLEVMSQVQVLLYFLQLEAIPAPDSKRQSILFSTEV
- experimentSummary: Inhibition of Bcr/Abl by FRET-based Z-lyte assay
- Assay type: protein assay
measuredAttribute: IC50 (nM)

-- ask State the recorded IC50 for this entry: Cc1ncn(-c2cc(NC(=O)c3ccc(C)c(Nc4nc(-c5cccnc5)cs4)c3)cc(C(F)(F)F)c2)n1
-- reply 480

[A] Cc1ccc(C(=O)Nc2cc(-c3cn(C)nn3)cc(C(F)(F)F)c2)cc1Nc1nc(-c2cccnc2)cs1
[B] Cc1cn(-c2cc(NC(=O)c3ccc(C)c(Nc4nc(-c5cccnc5)cs4)c3)cc(C(F)(F)F)c2)cn1
[C] Cc1cn(-c2cc(NC(=O)c3ccc(C)c(Nc4nc(-c5cccnc5)cs4)c3)cc(C(C)(C)C)c2)cn1
-- ask // ascending sort on recorded IC50 Form entry: labels listed in requested order.
-- reply C, A, B
(C: 20.1 nM, A: 277 nM, B: 671 nM)

###

- System: K562
- experimentSummary: Antiproliferative activity against human imatinib-resistant K562 cells
- Type: functional, cell-based
pIC50: −log10 of the molar value.
measuredAttribute: pIC50

Solved cases below.
-- ask State the recorded pIC50 for this entry: Cc1ccc(C(=O)Nc2cc(-n3ccnc3)cc(C(F)(F)F)c2)cc1Nc1nc(-c2cccnc2)cs1
-- reply 5.67

-- ask Entry to check: Cc1cn(-c2cc(NC(=O)c3ccc(C)c(Nc4nc(-c5cccnc5)cs4)c3)cc(C34CC5CC(CC(C5)C3)C4)c2)cn1
-- reply 4.93

[A] Cc1ccc(NC(=O)c2ccc(CN3CCN(C)CC3)cc2)cc1Nc1nccc(-c2cccnc2)n1 [IMATINIB]
[B] Cc1cc(NC(=O)c2ccc(C)c(Nc3nc(-c4cccnc4)cs3)c2)cc(-n2cnc(C)c2)c1
-- ask Hi there, can you help? I need to know whether A or B has lower measured pIC50. Please respond with the label that marks your chosen entry.
-- reply B

###

- systemName: Bcr/Abl fusion protein (Homo sapiens, UniProt P00519)
- experimentSummary: Inhibition of Bcr/Abl by FRET-based Z-lyte assay
measuredAttribute: IC50 (nM)

Solved cases below.
-- ask State the recorded IC50 for this entry: Cc1cc(NC(=O)c2ccc(C)c(Nc3nc(-c4cccnc4)cs3)c2)cc(-n2cnc(C)c2)c1
-- reply 774

-- ask Entry to check: Cc1ccc(C(=O)Nc2cc(-n3ccnc3)cc(C(F)(F)F)c2)cc1Nc1nc(-c2cccnc2)cs1
-- reply 507

[1] Cc1cn(-c2cc(NC(=O)c3cccc(Nc4nc(-c5cccnc5)cs4)c3)cc(C(F)(F)F)c2)cn1
[2] Cc1ccc(C(=O)Nc2cc(-c3cnn(C)c3)cc(C(F)(F)F)c2)cc1Nc1nc(-c2cccnc2)cs1
[3] Cc1cn(-c2cc(Cl)cc(NC(=O)c3ccc(C)c(Nc4nc(-c5cccnc5)cs4)c3)c2)cn1
[4] Cc1cn(-c2cc(NC(=O)c3ccc(C)c(Nc4nc(-c5cccnc5)cs4)c3)cc(C(C)C)c2)cn1
[5] CCc1ccc(C(=O)Nc2cc(-n3cnc(C)c3)cc(C(F)(F)F)c2)cc1Nc1nc(-c2cccnc2)cs1
-- ask // ascending sort on recorded IC50 Form entry: labels listed in requested order.
-- reply 4, 2, 3, 1, 5
(4: 177 nM, 2: 491 nM, 3: 1300 nM, 1: 3780 nM, 5: 5510 nM)

###

- System: K562
- experimentSummary: Antiproliferative activity against human imatinib-resistant K562 cells
- Format: functional, cell-based
measuredAttribute: IC50 (nM)

Solved cases below.
-- ask State the recorded IC50 for this entry: Cc1ccc(C(=O)Nc2cc(-c3cn(C)nn3)cc(C(F)(F)F)c2)cc1Nc1nc(-c2cccnc2)cs1
-- reply 3510

-- ask Entry to check: Cc1cn(-c2cc(NC(=O)c3ccc(C)c(Nc4nc(-c5cccnc5)cs4)c3)cc(C(C)C)c2)cn1
-- reply 2910

-- ask Entry to check: Cc1cn(-c2cc(NC(=O)c3ccc(C)c(Nc4nc(-c5cccnc5)cs4)c3)cc(C(C)(C)C)c2)cn1
-- reply 640

-- ask Entry to check: Cc1cn(-c2cc(NC(=O)c3ccc(C)c(Nc4nc(-c5cccnc5)cs4)c3)cc(C(F)(F)F)c2)cn1
-- reply 1830

-- ask Entry to check: Cc1cn(-c2cc(NC(=O)c3cccc(Nc4nc(-c5cccnc5)cs4)c3)cc(C(F)(F)F)c2)cn1
-- reply 1720

-- ask Entry to check: Cc1cn(-c2cc(Cl)cc(NC(=O)c3ccc(C)c(Nc4nc(-c5cccnc5)cs4)c3)c2)cn1
-- reply 2360

[1] Cc1ncn(-c2cc(NC(=O)c3ccc(C)c(Nc4nc(-c5cccnc5)cs4)c3)cc(C(F)(F)F)c2)n1
[2] Cc1ccc(C(=O)Nc2cc(-c3cnn(C)c3)cc(C(F)(F)F)c2)cc1Nc1nc(-c2cccnc2)cs1
[3] Cc1cn(-c2cc(NC(=O)c3ccc(C)c(Nc4nccc(-c5cccnc5)n4)c3)cc(C(F)(F)F)c2)cn1
-- ask List from greatest to least IC50. Form entry: labels listed in requested order.
-- reply 2, 1, 3
